# target.system: full-length ATR (Homo sapiens, UniProt Q13535)
# Construct: Assays were carried out at 25° C. in the presence of 5 nM full-length ATR
# Sequence (Q13535 whole entry): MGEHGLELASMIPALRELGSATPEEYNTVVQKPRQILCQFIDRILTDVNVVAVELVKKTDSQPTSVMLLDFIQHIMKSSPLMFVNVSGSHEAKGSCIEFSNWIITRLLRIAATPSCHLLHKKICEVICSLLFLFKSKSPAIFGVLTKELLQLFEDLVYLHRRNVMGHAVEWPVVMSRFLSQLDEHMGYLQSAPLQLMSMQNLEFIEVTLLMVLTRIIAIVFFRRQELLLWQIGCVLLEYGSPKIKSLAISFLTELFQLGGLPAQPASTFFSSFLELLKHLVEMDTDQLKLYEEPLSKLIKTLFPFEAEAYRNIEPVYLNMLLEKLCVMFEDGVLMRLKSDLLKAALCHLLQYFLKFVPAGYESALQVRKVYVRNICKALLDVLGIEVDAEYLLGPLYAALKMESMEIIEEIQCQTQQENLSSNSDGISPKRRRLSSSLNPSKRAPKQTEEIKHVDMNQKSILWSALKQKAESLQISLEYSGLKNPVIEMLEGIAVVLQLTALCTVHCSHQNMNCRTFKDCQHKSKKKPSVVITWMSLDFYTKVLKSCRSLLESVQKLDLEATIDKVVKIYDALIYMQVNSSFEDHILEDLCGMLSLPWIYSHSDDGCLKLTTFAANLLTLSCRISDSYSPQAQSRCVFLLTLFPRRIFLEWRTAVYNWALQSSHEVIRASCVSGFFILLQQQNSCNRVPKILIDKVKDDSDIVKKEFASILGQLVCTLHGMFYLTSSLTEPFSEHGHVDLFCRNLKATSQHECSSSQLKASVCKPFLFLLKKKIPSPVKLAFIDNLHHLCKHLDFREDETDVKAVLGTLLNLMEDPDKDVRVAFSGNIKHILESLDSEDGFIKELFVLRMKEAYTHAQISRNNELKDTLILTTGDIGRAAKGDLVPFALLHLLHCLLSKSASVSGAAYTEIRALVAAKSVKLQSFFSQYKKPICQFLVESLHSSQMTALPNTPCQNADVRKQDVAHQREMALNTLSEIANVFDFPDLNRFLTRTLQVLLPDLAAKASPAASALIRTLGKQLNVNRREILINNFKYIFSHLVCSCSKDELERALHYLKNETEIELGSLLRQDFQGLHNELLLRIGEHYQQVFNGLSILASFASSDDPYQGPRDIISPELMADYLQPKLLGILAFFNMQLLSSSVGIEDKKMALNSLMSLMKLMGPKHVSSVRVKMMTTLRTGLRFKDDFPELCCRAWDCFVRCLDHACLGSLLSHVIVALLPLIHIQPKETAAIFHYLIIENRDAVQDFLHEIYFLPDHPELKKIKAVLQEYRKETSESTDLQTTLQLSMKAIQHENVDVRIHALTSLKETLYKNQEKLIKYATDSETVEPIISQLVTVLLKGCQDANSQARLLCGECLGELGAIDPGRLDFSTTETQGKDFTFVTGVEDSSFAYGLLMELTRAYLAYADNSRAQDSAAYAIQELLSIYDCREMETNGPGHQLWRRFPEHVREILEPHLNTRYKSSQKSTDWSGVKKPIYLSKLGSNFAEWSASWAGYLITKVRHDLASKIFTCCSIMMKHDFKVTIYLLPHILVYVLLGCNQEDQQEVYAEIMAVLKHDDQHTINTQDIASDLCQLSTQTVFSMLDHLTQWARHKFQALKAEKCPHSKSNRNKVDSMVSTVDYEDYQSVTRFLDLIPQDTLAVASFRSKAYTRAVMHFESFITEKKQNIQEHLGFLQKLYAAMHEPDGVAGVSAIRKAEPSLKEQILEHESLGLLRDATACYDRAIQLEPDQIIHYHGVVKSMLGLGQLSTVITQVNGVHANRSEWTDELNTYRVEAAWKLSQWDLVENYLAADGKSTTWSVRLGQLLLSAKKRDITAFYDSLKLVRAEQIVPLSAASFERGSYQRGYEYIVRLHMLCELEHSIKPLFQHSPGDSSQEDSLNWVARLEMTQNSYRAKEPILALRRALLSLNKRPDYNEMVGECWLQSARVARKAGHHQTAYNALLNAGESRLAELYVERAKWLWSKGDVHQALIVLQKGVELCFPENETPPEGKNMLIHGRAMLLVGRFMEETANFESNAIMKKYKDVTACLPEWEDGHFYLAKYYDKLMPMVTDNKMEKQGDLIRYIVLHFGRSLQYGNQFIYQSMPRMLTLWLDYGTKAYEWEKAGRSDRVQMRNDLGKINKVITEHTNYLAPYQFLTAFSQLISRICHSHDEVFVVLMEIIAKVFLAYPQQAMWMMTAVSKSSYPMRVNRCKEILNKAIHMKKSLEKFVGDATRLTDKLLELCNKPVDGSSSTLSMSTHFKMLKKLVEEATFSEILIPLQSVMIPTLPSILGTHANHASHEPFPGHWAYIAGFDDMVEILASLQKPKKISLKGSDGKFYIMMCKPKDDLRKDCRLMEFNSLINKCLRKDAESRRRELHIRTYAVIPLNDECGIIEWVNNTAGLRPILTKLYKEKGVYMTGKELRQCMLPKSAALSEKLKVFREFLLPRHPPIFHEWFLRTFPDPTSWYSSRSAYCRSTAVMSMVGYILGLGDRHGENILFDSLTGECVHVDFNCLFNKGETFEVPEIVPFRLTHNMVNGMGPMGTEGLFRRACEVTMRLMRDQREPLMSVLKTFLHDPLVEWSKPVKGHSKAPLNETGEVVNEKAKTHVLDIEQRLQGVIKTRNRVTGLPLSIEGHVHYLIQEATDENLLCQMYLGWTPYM
# experiment.description: ATR Inhibition Assay (radioactive-phosphate incorporation)
# Experimental: Compounds were screened for their ability to inhibit ATR kinase using a radioactive-phosphate incorporation assay. Assays were carried out in a mixture of 50 mM Tris/HCl (pH 7.5), 10 mM MgCl2 and 1 mM DTT. […] After removing mean background values for all of the data points, Ki(app) data were calculated from non-linear regression analysis of the initial rate data using the Prism software package (GraphPad Prism version 3.0cx for Macintosh, GraphPad Software, San Diego Calif., USA). […]
Entries and their Ki values follow.

// known answers, use as guide
>  <molecule>
Nc1ncc(-c2ccc(C(=O)N3CCCNCC3)cc2)cc1-c1nnc(-c2ccccc2)o1 [III-2]

>  <Ki>
10 to 100 nM

$$$$
>  <molecule>
CNCc1ccc(-c2nnc(-c3cc(-c4ccc(S(=O)(=O)C(C)C)cc4)cnc3N)o2)cc1 [III-11]

>  <Ki>
≤ 10 nM

$$$$

GET /value?item= Nc1ncc(-c2cccnc2)cc1C(=O)Nc1ccccc1 [III-7] &field=Ki returns 100 to 5000 nM

GET /value?item= CS(=O)(=O)c1ccc(-c2cnc(N)c(-c3nnc(-c4ccccc4)o3)c2)cc1 [III-3] &field=Ki returns 10 to 100 nM

GET /value?item= CCS(=O)(=O)N1CC=C(c2cnc(N)c(-c3nnc(-c4ccccc4)o3)c2)CC1 [III-4] &field=Ki returns 10 to 100 nM

GET /value?item= CNCc1ccc(-c2cc(-c3cc(-c4ccc(S(=O)(=O)C(C)C)cn4)cnc3N)on2)cc1 [III-12] &field=Ki returns ≤ 10 nM

GET /value?item= CNCc1ccc(-c2nnc(-c3cc(-c4ccc(S(=O)(=O)C(C)C)cn4)cnc3N)o2)cc1 [III-10] &field=Ki returns ≤ 10 nM

GET /value?item= CNCc1ccc(-c2nnc(-c3cc(-c4cnc(S(=O)(=O)C(C)C)cn4)cnc3N)o2)cc1 [III-5] &field=Ki returns ≤ 10 nM

GET /value?item= CNCc1ccc(-c2nnc(-c3cc(-c4ccsc4)cnc3N)o2)cc1 [III-9] &field=Ki returns 10 to 100 nM

GET /value?item= Cc1ccc(-c2cc(-c3cc(-c4ccc(S(=O)(=O)C(C)C)cn4)cnc3N)on2)cc1 [III-6] &field=Ki returns 10 to 100 nM

GET /value?item= CNCc1ccc(-c2cc(-c3cc(-c4ccc(S(=O)(=O)C(C)C)cn4)cnc3N)on2)c(F)c1 [III-8] &field=Ki returns ≤ 10 nM

GET /value?item= CNCc1ccc(-c2nnc(-c3cc(-c4ccc(S(=O)(=O)[C@@H]5CCOC5)cc4)cnc3N)o2)cc1 [III-1] &field=Ki returns ≤ 10 nM

* * *

# Test system: HCT116 colorectal cancer cells
# experiment.description: Cisplatin Sensitization Assay (96 h cell viability MTS)
# Type: cell-based
# measurement.context: concentration of compound required to reduce the IC50 of Cisplatin alone by at least 3-fold, 96 h MTS
measurement.type: CP3 Shift

// known answers, use as guide
>  <mol>
CNCc1ccc(-c2cc(-c3cc(-c4ccc(S(=O)(=O)C(C)C)cn4)cnc3N)on2)c(F)c1

>  <experimental.result>
.234 µM

$$$$
>  <mol>
CNCc1ccc(-c2nnc(-c3cc(-c4ccc(S(=O)(=O)C(C)C)cn4)cnc3N)o2)cc1

>  <experimental.result>
.078 µM

$$$$

# CP3 Shift measured on HCT116 colorectal cancer cells for item CNCc1ccc(-c2nnc(-c3cc(-c4ccc(S(=O)(=O)C(C)C)cc4)cnc3N)o2)cc1 = .156 µM

# CP3 Shift measured on HCT116 colorectal cancer cells for item CNCc1ccc(-c2cc(-c3cc(-c4ccc(S(=O)(=O)C(C)C)cn4)cnc3N)on2)cc1 = .156 µM

The reported measurements were obtained from patent US9096584B2.
